target: human ΔF508-CFTR (Homo sapiens, UniProt P13569, DEL508-508); construct: expressed in transfected cells; assay: CFTR-YFP high throughput assay, CFTR corrector protocol (YFP iodide flux quench); format: cell-based; settings: FRT cells expressing human ΔF508-CFTR and YFP-H148Q/I152L; 24-26 h incubation with compound; normalized to the positive control; read-out: EMAX (% Efficacy, EMAX normalized to the positive control)
Sequence (P13569 with tags, fused parts or gaps DEL508-508): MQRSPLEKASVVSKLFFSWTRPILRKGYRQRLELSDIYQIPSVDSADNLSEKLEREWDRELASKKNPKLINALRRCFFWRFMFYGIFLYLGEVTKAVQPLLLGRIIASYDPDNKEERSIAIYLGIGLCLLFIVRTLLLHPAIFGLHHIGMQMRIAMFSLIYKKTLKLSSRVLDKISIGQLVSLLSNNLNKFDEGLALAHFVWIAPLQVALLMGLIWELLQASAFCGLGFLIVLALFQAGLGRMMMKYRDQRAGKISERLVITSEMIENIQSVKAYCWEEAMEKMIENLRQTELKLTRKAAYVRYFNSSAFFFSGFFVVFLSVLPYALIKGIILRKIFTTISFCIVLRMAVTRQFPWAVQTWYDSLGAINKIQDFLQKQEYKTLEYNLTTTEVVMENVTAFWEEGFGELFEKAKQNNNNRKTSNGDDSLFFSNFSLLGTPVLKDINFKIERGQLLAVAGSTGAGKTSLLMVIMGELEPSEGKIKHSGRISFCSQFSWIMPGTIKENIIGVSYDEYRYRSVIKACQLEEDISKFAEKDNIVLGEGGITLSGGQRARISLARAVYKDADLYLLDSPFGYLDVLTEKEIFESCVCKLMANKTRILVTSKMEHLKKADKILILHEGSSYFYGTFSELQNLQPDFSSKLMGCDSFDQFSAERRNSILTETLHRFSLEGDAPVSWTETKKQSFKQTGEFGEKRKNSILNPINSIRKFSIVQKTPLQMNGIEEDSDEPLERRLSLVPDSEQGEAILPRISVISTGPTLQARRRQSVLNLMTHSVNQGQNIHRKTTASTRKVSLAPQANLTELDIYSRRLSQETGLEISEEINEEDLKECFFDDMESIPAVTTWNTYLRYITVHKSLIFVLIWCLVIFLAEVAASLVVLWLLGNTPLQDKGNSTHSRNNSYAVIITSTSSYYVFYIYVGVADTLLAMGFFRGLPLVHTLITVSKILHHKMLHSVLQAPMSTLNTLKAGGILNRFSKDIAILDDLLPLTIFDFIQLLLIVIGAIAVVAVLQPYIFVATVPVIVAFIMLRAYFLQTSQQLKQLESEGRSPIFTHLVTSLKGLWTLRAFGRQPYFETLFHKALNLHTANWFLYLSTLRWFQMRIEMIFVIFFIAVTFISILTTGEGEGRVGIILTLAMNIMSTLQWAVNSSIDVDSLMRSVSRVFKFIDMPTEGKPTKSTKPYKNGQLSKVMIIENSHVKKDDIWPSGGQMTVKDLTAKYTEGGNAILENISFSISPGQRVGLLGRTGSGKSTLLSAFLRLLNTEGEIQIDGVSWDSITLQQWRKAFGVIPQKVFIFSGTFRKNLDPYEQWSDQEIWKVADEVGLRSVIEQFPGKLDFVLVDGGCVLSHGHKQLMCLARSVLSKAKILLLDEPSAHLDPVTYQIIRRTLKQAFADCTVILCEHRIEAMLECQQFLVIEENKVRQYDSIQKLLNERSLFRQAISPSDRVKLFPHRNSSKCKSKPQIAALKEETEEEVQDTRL
Measured Emax accompanies every entry in the list below.

MOLECULE: O=S(=O)(c1ccc2c(c1)OCO2)N1CCC(n2c(-c3ccccc3)nc3cccnc32)CC1
Emax: 30 to 80%
--
MOLECULE: COc1ccc(S(=O)(=O)N2CCC(n3c(-c4cccc(C)c4)nc4cccnc43)CC2)cc1Cl
Emax: > 80%
--
MOLECULE: COc1ccc(S(=O)(=O)N2CCC(n3c(-c4ccc(C)cc4)nc4cccnc43)CC2)cc1Cl
Emax: 30 to 80%
--
MOLECULE: COc1ccc(S(=O)(=O)N2CCC(n3c(-c4ccccc4F)nc4cccnc43)CC2)cc1Cl
Emax: 30 to 80%
--
MOLECULE: COc1ccc(S(=O)(=O)N2CCC(n3c(-c4ccc(Cl)cc4)nc4cccnc43)CC2)cc1Cl
Emax: 10 to 30%
--
MOLECULE: Cc1ccc(S(=O)(=O)N2CCC(n3c(-c4ccccc4Cl)nc4cccnc43)CC2)cc1Cl
Emax: 30 to 80%
--
MOLECULE: COc1ccc(S(=O)(=O)N2CCC(n3c(-c4ccccc4C)nc4cccnc43)CC2)cc1Cl
Emax: 30 to 80%
--
MOLECULE: COc1ccc(S(=O)(=O)N2CCC(n3c(-c4ccccc4)nc4cc(C)cnc43)CC2)cc1Cl
Emax: 30 to 80%
--
MOLECULE: COc1ccc(S(=O)(=O)N2CCC(n3c(-c4ccccc4)nc4cc(Cl)cnc43)CC2)cc1Cl
Emax: 30 to 80%
--
MOLECULE: COc1ccc(S(=O)(=O)N2CCC(n3c(-c4ccccc4)nc4cccnc43)CC2)cc1Cl
Emax: > 80%
--
MOLECULE: COc1ccc(S(=O)(=O)N2CCC(n3c(C4CCCCC4)nc4cccnc43)CC2)cc1Cl
Emax: 30 to 80%
--
MOLECULE: Cc1ccc2nc(-c3ccncc3Cl)n(C3CCN(S(=O)(=O)c4ccc5c(c4)OC(F)(F)O5)CC3)c2n1
Emax: 30 to 80%
--
MOLECULE: COc1ccc(C(=O)N2CCC(n3c(-c4ccccc4)nc4cccnc43)CC2)cc1Cl
Emax: 10 to 30%
--
MOLECULE: COc1cc(S(=O)(=O)N2CCC(n3c(-c4ccccc4)nc4cccnc43)CC2)ccc1Cl
Emax: 30 to 80%
--
MOLECULE: COc1ccc(S(=O)(=O)N2CCC(n3c(-c4ccncc4)nc4cccnc43)CC2)cc1Cl
Emax: 30 to 80%
--
MOLECULE: COc1ccc(S(=O)(=O)N2CCC(n3c(-c4ccc5[nH]cnc5c4)nc4cccnc43)CC2)cc1Cl
Emax: 30 to 80%
